Data origin: ChEMBL document CHEMBL3124882

Measured on: Protease (Human immunodeficiency virus 1, UniProt Q9YQ12)
Sequence (Q9YQ12 whole entry): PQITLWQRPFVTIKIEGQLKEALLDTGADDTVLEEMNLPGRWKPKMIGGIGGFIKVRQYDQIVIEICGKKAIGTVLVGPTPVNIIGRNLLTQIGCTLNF
Assay notes: Inhibition of HIV1 recombinant protease expressed in Escherichia coli using Abz-Ala-Arg-Val-Nle-Tyr(NO2)-Glu-Ala-Nle-NH2 as substrate by FRET assay
One threshold, 3 µM, splits the recorded IC50 values: lower ones are true (1), equal or higher ones are false (0).

API: query returns whether the molecule falls strictly under 3 µM in IC50. Query: CC1(C)CC[C@]2(C(=O)OCc3ccccc3)CC[C@]3(C)C(=CC[C@@H]4[C@@]5(C)C[C@@H](OC(=O)CCCC(=O)O)[C@H](OC(=O)CCCC(=O)O)C(C)(C)[C@@H]5CC[C@]43C)[C@@H]2C1
false (0)

Same read-out for CC1(C)CC[C@]2(C(=O)O)CC[C@]3(C)C(=CC[C@@H]4[C@@]5(C)C[C@@H](OC(=O)CCCC(=O)O)[C@H](O)C(C)(C)[C@@H]5CC[C@]43C)[C@@H]2C1 ?
false (0)

Same read-out for CCCCCC(=O)O[C@@H]1C[C@]2(C)[C@H]3CC=C4[C@@H]5CC(C)(C)CC[C@]5(C(=O)OCc5ccccc5)CC[C@@]4(C)[C@]3(C)CC[C@H]2C(C)(C)[C@H]1OC(=O)CCCCC ?
false (0)

Same read-out for CC1(C)CC[C@]2(C(=O)O)CC[C@]3(C)C(=CC[C@@H]4[C@@]5(C)CC[C@H](OC(=O)CCCC(=O)O)C(C)(C)[C@@H]5CC[C@]43C)[C@@H]2C1 ?
true (1)

Same read-out for CC1(C)CC[C@]2(C(=O)O)CC[C@]3(C)C(=CC[C@@H]4[C@@]5(C)C[C@@H](OC(=O)CCC(=O)O)[C@H](O)C(C)(C)[C@@H]5CC[C@]43C)[C@@H]2C1 ?
false (0)

Same read-out for CC1(C)CC[C@]2(C(=O)OCc3ccccc3)CC[C@]3(C)C(=CC[C@@H]4[C@@]5(C)CC[C@H](OC(=O)c6ccccc6C(=O)O)C(C)(C)[C@@H]5CC[C@]43C)[C@@H]2C1 ?
true (1)

---

Test system: B16-F10
Assay notes: Induction of apoptosis in mouse B16F10 cells assessed as total apoptotic cells at 2 X IC50 after 72 hrs by annexin V-FITC/propidium iodide staining-based FACS analysis (reference value: 13.7 +/- 2.7%)
Type: functional
Answer each item with its documented Activity.
Please reply with the bare figure in % and do not write the unit itself.

What does the record list as Activity for CC1(C)CC[C@]2(C(=O)OCc3ccccc3)CC[C@]3(C)C(=CC[C@@H]4[C@@]5(C)C[C@@H](OC(=O)c6ccccc6C(=O)O)[C@H](O)C(C)(C)[C@@H]5CC[C@]43C)[C@@H]2C1 ?
89.7

Same read-out for CCCC(=O)O[C@@H]1C[C@]2(C)[C@H]3CC=C4[C@@H]5CC(C)(C)CC[C@]5(C(=O)O)CC[C@@]4(C)[C@]3(C)CC[C@H]2C(C)(C)[C@H]1O ?
83

Same read-out for CC(=O)O[C@@H]1C[C@]2(C)[C@H]3CC=C4[C@@H]5CC(C)(C)CC[C@]5(C(=O)OCc5ccccc5)CC[C@@]4(C)[C@]3(C)CC[C@H]2C(C)(C)[C@H]1O ?
98.4

---

Answer each item with its documented IC50.
Measured on: Protease (Human immunodeficiency virus 1, UniProt Q9YQ12)
Assay notes: Inhibition of HIV1 recombinant protease expressed in Escherichia coli using Abz-Ala-Arg-Val-Nle-Tyr(NO2)-Glu-Ala-Nle-NH2 as substrate by FRET assay
Please reply with the bare figure in µM and do not write the unit itself.

What does the record list as IC50 for CC1(C)CC[C@]2(C(=O)O)CC[C@]3(C)C(=CC[C@@H]4[C@@]5(C)C[C@@H](OC(=O)c6ccccc6C(=O)O)[C@H](O)C(C)(C)[C@@H]5CC[C@]43C)[C@@H]2C1 ?
14.2

Same read-out for CCCCCCCCCCCC(=O)O[C@@H]1C[C@]2(C)[C@H]3CC=C4[C@@H]5CC(C)(C)CC[C@]5(C(=O)OCc5ccccc5)CC[C@@]4(C)[C@]3(C)CC[C@H]2C(C)(C)[C@H]1OC(=O)CCCCCCCCCCC ?
73

Same read-out for CC(C)(CC(=O)O)CC(=O)O[C@@H]1C[C@]2(C)[C@H]3CC=C4[C@@H]5CC(C)(C)CC[C@]5(C(=O)O)CC[C@@]4(C)[C@]3(C)CC[C@H]2C(C)(C)[C@H]1O ?
14.3

Same read-out for CC1(C)CC[C@]2(C(=O)O)CC[C@]3(C)C(=CC[C@@H]4[C@@]5(C)C[C@@H](OC(=O)CCC(=O)O)[C@H](OC(=O)CCC(=O)O)C(C)(C)[C@@H]5CC[C@]43C)[C@@H]2C1 ?
1.9

Same read-out for CC1(C)CC[C@]2(C(=O)O)CC[C@]3(C)C(=CC[C@@H]4[C@@]5(C)C[C@@H](OC(=O)c6ccccc6C(=O)O)[C@H](OC(=O)c6ccccc6C(=O)O)C(C)(C)[C@@H]5CC[C@]43C)[C@@H]2C1 ?
2.3

Same read-out for CC1(C)CC[C@]2(C(=O)O)CC[C@]3(C)C(=CC[C@@H]4[C@@]5(C)CC[C@H](O)C(C)(C)[C@@H]5CC[C@]43C)[C@@H]2C1 [OLEANOLIC_ACID] ?
57.7

Same read-out for CC1(C)CC[C@]2(C(=O)O)CC[C@]3(C)C(=CC[C@@H]4[C@@]5(C)C[C@@H](OC(=O)CCCC(=O)O)[C@H](OC(=O)CCCC(=O)O)C(C)(C)[C@@H]5CC[C@]43C)[C@@H]2C1 ?
1.4

Same read-out for CCCCCC(=O)O[C@@H]1C[C@]2(C)[C@H]3CC=C4[C@@H]5CC(C)(C)CC[C@]5(C(=O)O)CC[C@@]4(C)[C@]3(C)CC[C@H]2C(C)(C)[C@H]1O ?
124

Same read-out for CCCC(=O)O[C@@H]1C[C@]2(C)[C@H]3CC=C4[C@@H]5CC(C)(C)CC[C@]5(C(=O)OCc5ccccc5)CC[C@@]4(C)[C@]3(C)CC[C@H]2C(C)(C)[C@H]1O ?
226
